Data origin: patent US8461328B2

- study target: JAK2 (Homo sapiens)
- Construct: made in house; host or cells: SF9 insect cells (baculovirus)
- Sequence (O60674 812-1132): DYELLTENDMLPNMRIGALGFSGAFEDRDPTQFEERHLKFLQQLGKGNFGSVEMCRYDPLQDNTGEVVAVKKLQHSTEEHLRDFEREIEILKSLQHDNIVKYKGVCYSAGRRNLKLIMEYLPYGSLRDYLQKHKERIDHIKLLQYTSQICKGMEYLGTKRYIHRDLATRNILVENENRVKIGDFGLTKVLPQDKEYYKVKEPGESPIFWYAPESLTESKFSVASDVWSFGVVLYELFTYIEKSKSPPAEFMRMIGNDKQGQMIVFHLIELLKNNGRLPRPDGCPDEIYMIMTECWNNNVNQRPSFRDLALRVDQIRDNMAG
- procedure summary: JAK2 inhibition (Table 4)
- Type: biochemical
- particulars: read-out: JAK2 Ki
List of Ki values.

>  <compound>
Cc1nc2cnc3[nH]ccc3c2n1C1CCN(S(C)(=O)=O)CC1 [Example 86]

>  <Ki / nM>
17.8

$$$$
>  <compound>
Cc1nc2cnc3[nH]ccc3c2n1[C@H](C)CO [Example 421]

>  <Ki / nM>
747

$$$$
>  <compound>
OCc1nc2cnc3[nH]ccc3c2n1C1CCCCC1 [Example 675]

>  <Ki / nM>
6.96

$$$$
>  <compound>
Cc1nc2cnc3[nH]ccc3c2n1[C@@H]1CC[C@@H](NCCC#N)C1 [Example 724]

>  <Ki / nM>
24.3

$$$$
>  <compound>
N#Cc1ccc(S(=O)(=O)N2CCC(n3cnc4cnc5[nH]ccc5c43)CC2)c(Cl)c1 [Example 446]

>  <Ki / nM>
2.25

$$$$
>  <compound>
Cc1nc2cnc3[nH]ccc3c2n1[C@H]1CCC[C@@](C)(O)C1 [Example 888]

>  <Ki / nM>
17.7

$$$$
>  <compound>
Cc1cc(CN2CCC(n3c([C@@H](C)O)nc4cnc5[nH]ccc5c43)CC2)n(C)n1 [Example 821]

>  <Ki / nM>
125

$$$$
>  <compound>
CC(C)(C)OC(=O)N[C@@H]1CC[C@@H](n2cnc3cnc4[nH]ccc4c32)C1 [Example 134]

>  <Ki / nM>
4.21

$$$$
>  <compound>
CC(O)c1nc2cnc3[nH]ccc3c2n1C1CCCN(CCF)C1 (centres unmarked) [Example 664]

>  <Ki / nM>
99

$$$$
>  <compound>
N#CCCN1CCC(n2c(CCNC(=O)C3CC3)nc3cnc4[nH]ccc4c32)CC1 [Example 377]

>  <Ki / nM>
29.5

$$$$
>  <compound>
Cc1nc2cnc3[nH]ccc3c2n1[C@H]1CCC[C@](C)(O)C1 [Example 886]

>  <Ki / nM>
16.7

$$$$
>  <compound>
O=CN1CCC(n2cnc3cnc4[nH]ccc4c32)C(F)(F)C1 (centres unmarked) [Example 180]

>  <Ki / nM>
19.9

$$$$
>  <compound>
N#Cc1cccc(CC(=O)N2CC[C@@H](n3cnc4cnc5[nH]ccc5c43)C2)c1 [Example 189]

>  <Ki / nM>
362

$$$$
>  <compound>
N#Cc1cccc(N2CCC(n3cnc4cnc5[nH]ccc5c43)CC2)n1 [Example 94]

>  <Ki / nM>
2.82

$$$$

###

- study target: JAK3 (Homo sapiens)
- Construct: made in house; host or cells: SF9 insect cells (baculovirus)
- Sequence (P52333 783-1124): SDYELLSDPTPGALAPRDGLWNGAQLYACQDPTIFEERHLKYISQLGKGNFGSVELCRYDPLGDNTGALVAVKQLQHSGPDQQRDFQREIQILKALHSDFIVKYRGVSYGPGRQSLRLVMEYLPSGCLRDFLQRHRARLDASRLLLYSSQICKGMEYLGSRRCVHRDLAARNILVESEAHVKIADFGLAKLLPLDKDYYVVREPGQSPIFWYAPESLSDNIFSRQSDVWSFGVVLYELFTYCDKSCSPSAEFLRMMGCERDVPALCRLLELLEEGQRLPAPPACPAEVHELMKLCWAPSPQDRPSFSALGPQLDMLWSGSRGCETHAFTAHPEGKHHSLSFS
- procedure summary: JAK3 inhibition (Table 4)
- Assay type: biochemical
- particulars: read-out: JAK3 Ki
pKi: −log10 of the molar value.
Measured pKi accompanies every entry in the list below.

>  <molecule>
N#CCCN1CCC(n2c(CNS(=O)(=O)C3CCCC3)nc3cnc4[nH]ccc4c32)CC1 [Example 499]

>  <study target>
JAK3 (Homo sapiens)

>  <pKi>
6.99

$$$$
>  <molecule>
N#CCCN1CCC(n2c(COCC(F)(F)F)nc3cnc4[nH]ccc4c32)CC1 [Example 834]

>  <study target>
JAK3 (Homo sapiens)

>  <pKi>
7.07

$$$$
>  <molecule>
O=C(Cc1nc2cnc3[nH]ccc3c2n1C1CCCOC1)NC1CCC1 (racemic) [Example 965]

>  <study target>
JAK3 (Homo sapiens)

>  <pKi>
6.97

$$$$
>  <molecule>
CC(C)CS(=O)(=O)NCc1nc2cnc3[nH]ccc3c2n1C1CCN(CCC#N)CC1 [Example 506]

>  <study target>
JAK3 (Homo sapiens)

>  <pKi>
7.13

$$$$
>  <molecule>
CCN1CC[C@@H](n2c(CCNS(=O)(=O)C3CC3)nc3cnc4[nH]ccc4c32)[C@@H](F)C1 [Example 809]

>  <study target>
JAK3 (Homo sapiens)

>  <pKi>
6.79

$$$$
